Quick reference for EC50 among some molecules
measured-on: hSTING (Homo sapiens, UniProt Q86WV6, G230A/H232R/R293Q/R71H)
Construct: host or cells: THP1-Dual KO-IFNAR2 cells
Sequence (Q86WV6 whole entry R71H/G230A/H232R/R293Q): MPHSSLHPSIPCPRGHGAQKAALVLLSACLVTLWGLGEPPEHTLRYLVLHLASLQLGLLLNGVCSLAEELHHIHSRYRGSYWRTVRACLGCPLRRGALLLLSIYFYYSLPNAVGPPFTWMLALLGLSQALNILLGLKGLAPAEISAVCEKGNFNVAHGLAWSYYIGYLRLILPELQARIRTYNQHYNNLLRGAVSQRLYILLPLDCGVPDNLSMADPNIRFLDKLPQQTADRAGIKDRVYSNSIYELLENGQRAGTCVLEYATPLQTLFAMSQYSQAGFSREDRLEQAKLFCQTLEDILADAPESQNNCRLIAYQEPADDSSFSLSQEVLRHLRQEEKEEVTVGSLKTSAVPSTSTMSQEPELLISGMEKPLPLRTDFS
procedure-text: STING reporter assay (luciferase) in THP1-Dual KO-IFNAR2 cells stimulated with 2′3′cGAMP
Type: cell-based
test-parameters: 15 μM 2′3′cGAMP, 24 h, class symbols

molecule: Cc1ccccc1N1C2CCC1CC(NC(=O)C(=O)Nc1c[nH]c3ncc(F)cc13)C2 (centres unmarked)
EC50: 1000 to 5000 nM

molecule: O=C(NCc1ccc(F)c(OC(F)(F)F)c1)C(=O)Nc1c[nH]c2ccncc12
EC50: 200 to 1000 nM

molecule: Cc1c(CNC(=O)C(=O)Nc2c[nH]c3cccnc23)cccc1C(F)(F)F
EC50: 200 to 1000 nM

molecule: O=C(NCc1cccc(OC(F)(F)F)c1)C(=O)Nc1c[nH]c2ccncc12
EC50: 1000 to 5000 nM

molecule: Cc1ccc(OCCNC(=O)C(=O)Nc2c[nH]c3ccncc23)cc1C
EC50: 5000 to 100000 nM

molecule: CC(CNC(=O)C(=O)Nc1c[nH]c2ccncc12)Oc1ccc(C(F)(F)F)cc1 (centres unmarked)
EC50: 1000 to 5000 nM

molecule: COc1ccc2[nH]cc(NC(=O)C(=O)NCc3ccc(C)c(C(F)(F)F)c3)c2n1
EC50: 200 to 1000 nM

With those in mind, consider the next molecule.
Fill in the blank: the reported EC50 of Cc1cc(F)c(Cl)cc1NC(=O)C(=O)Nc1c[nH]c2cccnc12 is ____.
5000 to 100000 nM
